Test system: PC49
runDescription: qHTS profiling for inhibitors of Plasmodium falciparum proliferation (AID 504749); note: nearly all actives have a fitted effect of over 60% in size
conditionsUsed: P. falciparum in erythrocytes, SYBR Green DNA, 72 h; series mostly up to 28.7 µM
Results filed as inconclusive are left out. Active and inactive are the calls of the source. Calls come from the whole dose curve; as a rule, active = well fitted inhibition curve with a large enough effect; inconclusive = small, poorly fitted or top-dose-only effect; inactive = flat fitted curve, though single readings scatter. Where a SMILES comes first, the peptide text is derived from it. [ ]: non-standard residue; d: D form. pGlu = O=C1CC[C@@H](C(=O)O)N1; Thz = O=C(O)[C@@H]1CSCN1
quantity: outcome

Please review the following examples before continuing.
- compound: "c1ccc2sc(SN3CCOCC3)nc2c1"
  outcome: "inactive"
- compound: "CCCCC[C@H](O)/C=C/[C@@H]1[C@@H](C/C=C\\CCCC(=O)O)[C@@H](O)C[C@H]1O"
  outcome: "inactive"
- compound: "C=CCN1C(=O)C(CC(C)C)NC1=S (stereo unspecified)"
  outcome: "inactive"
- compound: "O=C(O)c1ccccc1Nc1cccc(C(F)(F)F)c1"
  outcome: "inactive"
- compound: "O=C1CC[C@@H](C(=O)N2CSC[C@H]2C(=O)O)N1 ([pGlu]-[Thz]-OH)"
  outcome: "inactive"

# next compound below
Enquiry: For the compound COc1ccc(-c2cc(=S)ss2)cc1 , what outcome is on record?
Return: inactive

* * *

assayTarget: Peptidyl-prolyl cis-trans isomerase NIMA-interacting 1 (Homo sapiens) (UniProt Q13526)
Sequence (Q13526 whole entry, looked up): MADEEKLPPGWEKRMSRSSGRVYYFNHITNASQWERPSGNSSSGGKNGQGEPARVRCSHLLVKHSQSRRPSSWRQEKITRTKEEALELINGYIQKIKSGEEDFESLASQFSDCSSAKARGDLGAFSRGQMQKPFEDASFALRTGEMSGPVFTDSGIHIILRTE
runDescription: qHTS Validation Assay to Find Inhibitors of Pin1 (AID 504536)
conditionsUsed: Pin1 fluorescence polarization peptide binding assay; series mostly up to 57.5 µM
Results filed as inconclusive are left out. Activity calls are given as the source filed them. Calls come from the whole dose curve; as a rule, active = well fitted inhibition curve with a large enough effect in the polarisation, with a control signal flat (not every such curve was filed as active); inconclusive = small, poorly fitted or top-dose-only effect, or effect the other way; inactive = flat fitted curve, though single readings scatter; the % refers to the polarisation.
Log the outcome using a class from active, inactive

As a guide, the following entries are already answered.
- compound: "N=C(N)SCCc1ccc(CCSC(=N)N)cc1"
  label: "inactive"
- compound: "O=C1NC(=O)/C(=C/c2ccc3nccnc3c2)S1"
  label: "inactive"
- compound: "c1cnc2c(c1)ccc1cccnc12"
  label: "inactive"

Enquiry: Dear colleague, could you share the recorded outcome for Cc1cc(NC2CCCCC2)nc(-n2nc(C)cc2C)n1 when you have a moment?
Return: inactive

Enquiry: Same thing, different compound: C=C[C@H]1CN2CC[C@@H]1C[C@@H]2[C@@H](O)c1ccnc2ccc(OC)cc12
Return: inactive

Enquiry: And what about the compound Cc1ccc(C(=O)O[C@H](C(=O)O)[C@@H](OC(=O)c2ccc(C)cc2)C(=O)O)cc1 (tested in a mixture with another compound) ?
Return: inactive

Enquiry: How about O=C(O)CC[C@@H](C(=O)O)N1C(=O)c2ccccc2C1=O ?
Return: inactive

Enquiry: How about C=CC(N)CCC(=O)O (stereo unspecified) ?
Return: inactive

Enquiry: Next record, please: O=C(O)CC1CC(c2ccccc2)=NO1 (stereo unspecified)
Return: inactive

Enquiry: Could you do the same for O=P(O)(O)C(Cl)(Cl)P(=O)(O)O , please?
Return: active

Enquiry: Similarly, COC(=O)c1c(C)[nH]c(C)c1C(=O)c1ccccc1Cc1ccccc1 ?
Return: inactive

* * *

runDescription: qHTS drug screen for cell cycle checkpoint inhibitors in PARPi-resistant BRCA-mutant ovarian cancer cell lines. (AID 1963452)
conditionsUsed: PEO1/OlaR viability, CellTiter-Glo luminescence, 96 h; measured here: PEO1 parental Z-AUC; stronger effect = lower value
Note to self: use Satisfied only for Z-AUC readings below 1; a reading exactly at 1 still gets Not satisfied.

Field: example entries. Status: answers known.
- chemicalString: "CC1(C)[C@@H](O)CC[C@]2(C)[C@H]3C(=O)C=C4[C@@H]5C[C@@](C)(C(=O)O)CC[C@]5(C)CC[C@@]4(C)[C@]3(C)CC[C@@H]12"
  label: "Not satisfied"
- chemicalString: "O=C1NC(=O)/C(=C/c2ccc3nccnc3c2)S1"
  label: "Satisfied"
- chemicalString: "N=c1ccn2c(n1)O[C@H]1[C@H](O)[C@@H](CO)O[C@H]12"
  label: "Satisfied"

Enquiry: # check: Z-AUC < 1 for C#C[C@]1(O)CC[C@H]2[C@@H]3CCc4cc(O)ccc4[C@H]3CC[C@@]21C
Return: Satisfied

Value source: PubChem BioAssay (NCATS)
